Biological target: D(4) dopamine receptor (Homo sapiens, UniProt P21917)
Sequence (P21917 whole entry): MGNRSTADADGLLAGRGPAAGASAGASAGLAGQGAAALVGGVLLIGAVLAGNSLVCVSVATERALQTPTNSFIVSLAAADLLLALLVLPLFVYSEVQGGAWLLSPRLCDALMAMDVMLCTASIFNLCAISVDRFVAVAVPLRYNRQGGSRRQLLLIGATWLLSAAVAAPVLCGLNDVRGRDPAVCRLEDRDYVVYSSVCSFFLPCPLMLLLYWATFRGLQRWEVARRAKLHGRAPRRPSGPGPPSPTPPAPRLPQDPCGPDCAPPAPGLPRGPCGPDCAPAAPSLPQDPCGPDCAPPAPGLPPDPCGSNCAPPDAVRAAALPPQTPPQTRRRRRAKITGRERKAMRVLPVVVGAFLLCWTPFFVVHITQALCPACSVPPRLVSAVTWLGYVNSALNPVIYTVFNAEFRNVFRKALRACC
Assay: Displacement of [3H]-Spiperone from human recombinant dopamine D4 receptor expressed in CHOK1 cells
This listing pairs compounds with measured pKi.
Note on pKi: it is the negative log10 of concentration, concentration in mol/L.

Worked examples, 6 compounds total:
Cc1ccc(CN2CCO[C@H](COc3ccccc3)C2)cc1C    7.91
COc1ccc(CN2CCO[C@H](COc3ccccc3)C2)cc1OC    7.37
COc1ccc(CN2CCO[C@H](COc3cccc(F)c3)C2)cc1    7.59
COc1ccc(CN2CCO[C@H](COc3ccccc3)C2)cc1    7.36
c1ccc(OC[C@@H]2CN(Cc3ccc4[nH]ccc4c3)CCO2)cc1    7.80
Clc1ccc(CN2CCO[C@H](COc3cccnc3)C2)cc1    7.33

// returns reported pKi for input Cc1ccc(CN2CCO[C@H](CSc3ccccc3)C2)cc1C
8.13

// returns reported pKi for input COc1ccc(CN2CCO[C@H](COc3cccc(F)n3)C2)cc1Cl
7.14

====

This listing pairs compounds with measured Ki.
biological target: D(2) dopamine receptor (Homo sapiens, UniProt P14416); assay: Displacement of [3H]-Spiperone from human recombinant dopamine D2S receptor expressed in CHO cells; format: cell-based
Sequence (P14416 whole entry): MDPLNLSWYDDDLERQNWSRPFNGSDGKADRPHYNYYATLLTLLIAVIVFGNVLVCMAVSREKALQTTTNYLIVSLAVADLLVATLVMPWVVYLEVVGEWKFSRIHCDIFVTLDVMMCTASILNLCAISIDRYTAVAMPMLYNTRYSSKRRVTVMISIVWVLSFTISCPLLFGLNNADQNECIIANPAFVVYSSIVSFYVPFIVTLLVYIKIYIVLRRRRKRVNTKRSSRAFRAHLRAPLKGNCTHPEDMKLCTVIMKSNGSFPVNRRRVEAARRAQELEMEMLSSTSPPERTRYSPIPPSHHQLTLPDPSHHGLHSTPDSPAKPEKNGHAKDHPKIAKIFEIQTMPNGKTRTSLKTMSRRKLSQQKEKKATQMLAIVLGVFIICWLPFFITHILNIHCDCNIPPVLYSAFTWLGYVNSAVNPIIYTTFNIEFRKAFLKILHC

Worked examples, 2 compounds total:
Clc1ccc(CN2CCO[C@H](CSc3ccccc3)C2)cc1    > 10 µM
Fc1ccc2c(CN3CCO[C@H](COc4cccc(Cl)n4)C3)c[nH]c2c1    > 10 µM

Consider the additional compound presented here.
Record Cc1ccc(CN2CCO[C@H](CSc3ccccc3)C2)cc1C : what is its Ki with D(2) dopamine receptor (Homo sapiens, UniProt P14416)?
> 10 µM

====

Target: D(4) dopamine receptor (Homo sapiens)
Sequence (P21917 whole entry): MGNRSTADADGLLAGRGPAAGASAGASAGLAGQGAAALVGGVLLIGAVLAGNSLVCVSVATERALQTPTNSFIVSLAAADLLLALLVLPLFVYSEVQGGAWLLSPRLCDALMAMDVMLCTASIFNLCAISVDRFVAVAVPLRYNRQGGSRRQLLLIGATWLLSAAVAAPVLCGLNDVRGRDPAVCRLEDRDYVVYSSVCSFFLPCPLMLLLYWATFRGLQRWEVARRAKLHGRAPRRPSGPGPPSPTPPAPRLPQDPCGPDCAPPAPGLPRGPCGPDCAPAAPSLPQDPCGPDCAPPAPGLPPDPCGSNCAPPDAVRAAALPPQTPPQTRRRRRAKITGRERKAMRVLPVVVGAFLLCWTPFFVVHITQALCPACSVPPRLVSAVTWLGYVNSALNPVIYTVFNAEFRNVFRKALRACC
Experiment: Displacement of [3H]-Spiperone from human recombinant dopamine D4 receptor expressed in CHOK1 cells
Type: cell-based, CHO-K1
value type: pKi
Note on pKi: it is the negative log10 of concentration, concentration in mol/L.

Worked examples, 8 compounds total:
Clc1ccc2c(CN3CCO[C@H](COc4ccccc4)C3)c[nH]c2c1    8.66
c1ccc(OC[C@@H]2CN(Cc3ccc4ccccc4n3)CCO2)cc1    6.51
Fc1ccc(OC[C@@H]2CN(Cc3ccc(Cl)cc3)CCO2)cc1    7.98
FC1(F)Oc2ccc(CN3CCO[C@H](COc4ccccc4)C3)cc2O1    7.14
Fc1ccc2c(CN3CCO[C@H](COc4ccccc4)C3)c[nH]c2c1    8.28
CSc1ccc(CN2CCO[C@H](COc3ccccc3)C2)cc1    7.79
Fc1ccc(CN2CCO[C@H](COc3ccccc3)C2)cc1F    6.82
Fc1cccc(OC[C@@H]2CN(Cc3ccc(Cl)cc3)CCO2)n1    6.89

// returns reported pKi for input Clc1ccc(CN2CCO[C@H](COc3cccc(Cl)n3)C2)cc1
7.54

// returns reported pKi for input COc1ccc(CN2CCO[C@H](COc3cccc(F)c3)C2)cc1Cl
7.97

// returns reported pKi for input COc1ccc(CN2CCO[C@H](COc3ccc(OC)cc3)C2)cc1
6.96

// returns reported pKi for input Fc1ccc2c(CN3CCO[C@H](COc4cccc(Cl)n4)C3)c[nH]c2c1
8.48

// returns reported pKi for input Fc1ccc2c(CN3CCO[C@H](COc4cccc(F)n4)C3)c[nH]c2c1
7.68
